Provenance of the data: patent US10047086B2

A short record of pIC50 observed with LSD-1 enzyme (Homo sapiens (Human), UniProt O60341) follows.
pIC50: −log10 of the molar value.
MEASUREMENT_KIND: pIC50

INSERT INTO assay_data (compound, result) VALUES
  ('CN1CCC[C@@H](COc2nc(-c3ccc(C#N)cc3)c(-c3cnc4c(ccn4C)c3)n3cncc23)C1 [Example 85]', '≥ 7.30'),
  ('COc1ccc(-c2c(-c3ccc(C#N)cc3)cc(OC[C@@H]3CCCN(C)C3)c3cncn23)cn1 [Example 72]', '≥ 7.30'),
  ('Cn1ncc2cc(-c3c(-c4ccc(C#N)cc4)cc(OC[C@@H]4CCNC4)c4cncn34)ccc21 [Example 11]', '≥ 7.30'),
  ('Cc1ccc(-c2c(-c3ccc(C#N)cc3)cc(OC[C@@H]3CCN(C)C3)c3cncn23)cc1 [Example 20]', '≥ 7.30'),
  ('CN1CCC[C@@H](COc2nc(-c3ccc(C#N)cc3)c(-c3cnc4c(c3)OCCN4C)n3cncc23)C1 [Example 29]', '≥ 7.30'),
  ('COc1ncc(-c2c(-c3ccc(C#N)cc3)nc(N3CCC(N(C)C)CC3)c3cncn23)cc1C#N [Example 148]', '≥ 7.30'),
  ('CN1CCC[C@@H](COc2cc(-c3ccc(C#N)cc3)c(-c3ccc(C(C)(C)O)cc3)n3cncc23)C1 [Example 77]', '≥ 7.30'),
  ('Cc1ccc(-c2c(-c3ccc(C#N)cc3)nc(N3CCC(N(C)C)CC3)c3cncn23)cc1CO [Example 91]', '≥ 7.30'),
  ('CN1C(=O)CCc2cc(-c3c(-c4ccc(C#N)cc4)nc(N4CCC(N(C)C)CC4)c4cncn34)ccc21 [Example 137]', '≥ 7.30'),
  ('Cc1ccc(-c2c(-c3ccc(C#N)c(F)c3)cc(OC[C@@H]3CCNC3)c3cncn23)cc1 [Example 4]', '≥ 7.30'),
  ('Cc1cc(-c2c(-c3ccc(C#N)cc3)cc(OC[C@@H]3CCCN(C)C3)c3cncn23)cc(F)c1CO [Example 75]', '≥ 7.30'),
  ('CN1CCC[C@@H](COc2nc(-c3ccc(C#N)c(F)c3)c(-c3ccc4c(c3)CCC(=O)N4C)n3cncc23)C1 [Example 102]', '≥ 7.30'),
  ('Cc1ccc(-c2c(-c3ccc([N+](=O)[O-])cc3)cc(OC[C@@H]3CCNC3)c3cncn23)cc1 [Example 3]', '≥ 7.30'),
  ('Cc1cc(-c2c(-c3ccc(C#N)cc3)nc(OC[C@@H]3CCCN(C)C3)c3cncn23)ccc1CO [Example 45]', '≥ 7.30'),
  ('COCCN1CCC[C@@H](COc2cc(-c3ccc(C#N)cc3)c(-c3cnc4ccoc4c3)n3cncc23)C1 [Example 121]', '≥ 7.30');
